# Experimental details: amyloid nucleation score (Sup35N fusion, yeast selection) (log enrichment); library NNK2; higher = more nucleation; inactive = no reads after selection;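 further: zero at mode of non-aggregating sequences after 7 days selection at 30°C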
Criterion: amyloid nucleation score meeting or surpassing 0.07. Met: yes (1). Not met: no (0).

Use the examples below as a reference point.
>>> df
              substance  class_label
0     RADVRMFLTRGLKVDFG       no (0)
1  FLDGAYSWLWLGSYIRGLSH       no (0)

Problem: Evaluate NVNMVMNNSGKSRLCISENY : amyloid nucleation score at minimum 0.07?
Solution: no (0)

Problem: Now the same for KAYCVHSPVVCISGRVLDSG
Solution: no (0)

Problem: Note, next up: RFMFGNVKMLCVWAKRMLDI
Solution: yes (1)

Problem: Thanks! And ILKIAARIYLGLWTVFDWCG ?
Solution: yes (1)

Problem: Lookup TDVTYRNVVVSSRKFSGNRN
Solution: yes (1)

###

The entries below are paired with their reported amyloid nucleation score.
# Experimental details: amyloid nucleation score (Sup35N fusion, yeast selection) (log enrichment); library NNK1; higher = more nucleation; inactive = no reads after selection
// no unit string in output, number only

              substance  recorded_measurement
0  LKVLYLRSDRVSWVSKPLVI                -0.405

Problem: Entry under review: DLEIAGREGS . Reported amyloid nucleation score?
Solution: -0.322

Problem: Also need GGGQAELEGR , thanks.
Solution: 0.365

Problem: Try FFLLIFSVRGNPFFIKW next.
Solution: -0.153

Problem: Entry NFICLHQNNMLISPKGTATR please
Solution: 0.672

###

amyloid nucleation score values by entry
# Experimental details: amyloid nucleation score (Sup35N fusion, yeast selection) (log enrichment); library NNK1; higher = more nucleation; inactive = no reads after selection
Would you mind answering with just the numeric figure?

              substance  recorded_measurement
0         YWTSIHSLNTSIP                -0.229
1  VLGTLSMFYFRAYFRPAWLS                -0.278
2        SGGSLVFVCYGRNF                 -1.35
3  KYTYGRHTQLVLDSIHSWLN                 0.235
4             SIRSFMIVL                  3.49

Alright, here's another substance for you.
Problem: Value lookup for amyloid nucleation score; key = TVMVGLKVCAHQLDSM
Solution: 1.28

###

# Experimental details: amyloid nucleation score (Sup35N fusion, yeast selection) (log enrichment); library NNK1; higher = more nucleation; inactive = no reads after selection
Note to self: values exactly at 0.3 are Satisfied. So amyloid nucleation score at or above 0.3 is Satisfied, below is Not satisfied.

                  chain    class_label
0  MDAFTNAWVMGWCMLHCARG      Satisfied
1  NGKGFNDVVKLRSGRRWGVR  Not satisfied
2  PNMARHPFYEDMCFTVDVTN  Not satisfied
3  DEGRDLILISLAHRTSRIDP      Satisfied
4   IAMLSCQRWMCQQTVTSKF  Not satisfied
5  GACECDGYVTWCLRGIFGAK  Not satisfied
6  YRRGKIAWGSTARHETVFIL      Satisfied
7  IYLPRNVFRLTWFYLSQSLA      Satisfied
8   VVASSCSFNRRLESSAGYL      Satisfied
9  GLKRWSIGFRDGERQSCRVR  Not satisfied

Problem: Form field: amyloid nucleation score at least 0.3? Entry: ADCPLCGTYNLSYCMVRLDI
Solution: Satisfied

Problem: Would you kindly repeat that for NLSIRCLASFCPTGESWIRV ?
Solution: Satisfied

Problem: Likewise for SYRFFRGMMYLSHVIDLQSR ?
Solution: Not satisfied
